target: the molecule itself; experiment: homotypic FETCH screen
PROPERTY LABEL: binding result

PROTEIN | PROPERTY LABEL | EXPERIMENTAL VALUE
Cx35E224R (Morone americana Cx35 mutant E224R) (other, Extracellular loop mutant of the screening library; not shown: C-terminal fluorescent protein fusion (mEmerald or RFP670 in FETCH)) MGEWTILERLLEAAVQQHSTMIGRILLTVVVIFRILIVAIVGETVYDDEQTMFVCNTLQPGCNQACYDKAFPISHIRYWVFQIIMVCTPSLCFITYSVHQSAKQKERRYSTVYLTLDKDQDSLKRDESKKIKNTIVNGVLQNTENSTKEAEPDCLEVKEIPNSAMRTTKSKMRRQEGISRFYIIQVVFRNALEIGFLVGQYFLYGFNVPSVYECDRYPCIKDVRCYVSRPTEKTVFLVFMFAVSGFCVVLNLAELNHLGWRKIKTAVRGVQARRKSIYEIRNKDLPRMSVPNFGRTQSSDSAYV | binding result | no binding
Cx34.7 mutant L238Y (Morone americana) (other, Extracellular loop mutant of the screening library; also called Cx34.7 L238Y; not shown: C-terminal fluorescent protein fusion (mEmerald or RFP670 in FETCH)) MGEWTILERLLEAAVQQHSTMIGRILLTVVVIFRILIVAIVGETVYEDEQAMFICNTLQPGCNQACYDKAFPISHIRYWVFQIILVCTPSLCFITYSVHQSAKQKDRRYSFLYPIMERDYGGRDGARKLRNINGILVQHGGDGGGGKEEPDCLEVKEIPNAPRGLTHGKSSKVRRQEGISRFYIIQVVFRNALEIGFLAGQYFLYGFSVPGIFECDRYPCLKEVECYVSRPTEKTVFYVFMFAVSGICVVLNLAELNHLGWRKIKAAIRGVQARRKSICEIRKKDMAHLSQPPNLGRTQSSESAYV | binding result | no binding
